target: Epidermal growth factor receptor (Homo sapiens); test: Inhibition of EGFR-induced AP1 activation in human HeLa cells preincubated for 1 hr prior to EGF stimulation by luciferase reporter gene assay
Sequence (P00533 whole entry): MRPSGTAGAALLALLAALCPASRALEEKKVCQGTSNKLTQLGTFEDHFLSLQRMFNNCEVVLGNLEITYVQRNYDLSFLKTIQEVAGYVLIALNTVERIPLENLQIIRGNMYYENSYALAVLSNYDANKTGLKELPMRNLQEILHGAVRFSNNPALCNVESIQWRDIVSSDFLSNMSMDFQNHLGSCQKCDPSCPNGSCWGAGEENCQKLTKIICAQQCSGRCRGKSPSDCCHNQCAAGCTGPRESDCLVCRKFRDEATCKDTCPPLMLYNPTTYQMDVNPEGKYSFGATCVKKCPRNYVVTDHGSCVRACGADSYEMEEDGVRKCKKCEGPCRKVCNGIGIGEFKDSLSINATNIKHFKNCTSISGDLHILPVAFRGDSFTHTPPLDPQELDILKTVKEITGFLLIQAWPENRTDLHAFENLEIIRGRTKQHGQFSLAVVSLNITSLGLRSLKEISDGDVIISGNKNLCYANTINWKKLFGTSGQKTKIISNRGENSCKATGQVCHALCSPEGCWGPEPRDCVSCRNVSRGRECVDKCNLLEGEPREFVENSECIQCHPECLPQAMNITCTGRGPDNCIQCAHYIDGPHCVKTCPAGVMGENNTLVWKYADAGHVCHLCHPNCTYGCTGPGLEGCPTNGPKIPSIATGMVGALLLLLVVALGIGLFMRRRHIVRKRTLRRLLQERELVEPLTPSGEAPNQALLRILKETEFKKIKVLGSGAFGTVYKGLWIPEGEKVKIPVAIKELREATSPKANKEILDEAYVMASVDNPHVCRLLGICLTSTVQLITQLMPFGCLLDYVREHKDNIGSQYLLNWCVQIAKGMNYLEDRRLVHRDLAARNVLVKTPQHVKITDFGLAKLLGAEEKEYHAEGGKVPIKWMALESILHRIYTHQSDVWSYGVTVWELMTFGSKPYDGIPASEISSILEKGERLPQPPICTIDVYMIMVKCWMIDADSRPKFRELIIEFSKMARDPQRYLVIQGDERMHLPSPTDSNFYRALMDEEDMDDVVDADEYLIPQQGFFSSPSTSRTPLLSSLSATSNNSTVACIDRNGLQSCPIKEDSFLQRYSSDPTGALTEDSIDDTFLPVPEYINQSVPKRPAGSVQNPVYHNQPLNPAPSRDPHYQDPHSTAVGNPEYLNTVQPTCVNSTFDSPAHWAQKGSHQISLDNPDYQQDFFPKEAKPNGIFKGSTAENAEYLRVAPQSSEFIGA
OBSERVED PROPERTY: IC50 (nM)
A number alone suffices; assume nM.

Query C/C=C(\C)C(O[C@@H]1O[C@H](CO)[C@@H](O)[C@H](O)[C@H]1O)C(C)/C=C(C)/C=C/CC(C)/C=C/c1oc(OC)c(C)c(=O)c1C (some centres not stated) on Epidermal growth factor receptor (Homo sapiens); IC50 returned: 160

* * *

biological target: Epidermal growth factor receptor (Homo sapiens); assay: Inhibition of EGFR autophosphorylation in human HeLa cells preincubated for 30 mins prior to EGF stimulation by Western blotting; assay type: cell-based
Calls of active or inactive are those of the source. The calls are words filed in the database; no cut-off is given here.
Pick one: active, inactive

Known results for compounds:
C/C=C(\C)C(O[C@@H]1O[C@H](CO)[C@@H](O)[C@H](O)[C@H]1O)C(C)/C=C(C)/C=C/CC(C)/C=C/c1oc(OC)c(C)c(=O)c1C (some centres undefined)    inactive
COc1cc2ncnc(Nc3cccc(Cl)c3)c2cc1OC    active
C/C=C(\C)[C@H](O)[C@H](C)/C=C(C)/C=C/CC(C)/C=C/c1oc(OC)c(C)c(=O)c1C (some centres undefined)    inactive

Now consider the entry below.
Query: Per the assay record, what outcome was assigned to C/C=C(\C)C(O)C(C)/C=C(C)/C=C/CC(C)/C=C/c1oc(OC)c(CC)c(=O)c1C (centres undefined) ?
Response: inactive
